The measurements presented in this section are drawn from PubChem BioAssay (NCI).

- Tested on: TK-10 renal
- test.method.notes: NCI tumour cell line growth inhibition, 48 h

{"molecule": "CC(=O)NC1C(OCc2ccccc2)OC(CO)C(O)C1OC(C)C(=O)NC(C)C(=O)NC(CCC(=O)NCCCCNc1c2ccccc2nc2cccc([N+](=O)[O-])c12)C(N)=O (stereo not given)", "measurement.target": "TK-10 renal", "bound.type": "=", "TGI, µM": 0.128}
{"molecule": "Cc1cccc2c3c(sc12)C(c1ccc(Cl)cc1)C(C#N)=C(N)O3 (stereo not given)", "measurement.target": "TK-10 renal", "bound.type": "=", "TGI, µM": 21.7}
{"molecule": "CCOP1(=O)C=C(C)C(Cl)=C(C)C1 (stereo not given)", "measurement.target": "TK-10 renal", "bound.type": "=", "TGI, µM": 96.7}
{"molecule": "COc1ccc(N(CC(=O)NCCC[Te]c2ccccc2)C(=O)CNC(=O)OC(C)(C)C)cc1", "measurement.target": "TK-10 renal", "bound.type": "=", "TGI, µM": 10.8}
{"molecule": "O=C1OC(C(O)CO)C(O)=C1O (stereo not given)", "measurement.target": "TK-10 renal", "bound.type": ">", "TGI, µM": 10000}

----------
- System: OVCAR-3 ovarian
- test.method.notes: NCI tumour cell line growth inhibition, 48 h
// values below are reported TGI

{"molecule": "Cc1c(-c2ccccc2)[nH]c2cc(Cl)ccc2c1=O", "measurement.target": "OVCAR-3 ovarian", "TGI": "> 100 µM"}
{"molecule": "N#CCN1CCn2c1nsc2=S", "measurement.target": "OVCAR-3 ovarian", "TGI": "> 100 µM"}
{"molecule": "CCOC(=O)C(=CNc1ccc(NC2=NCC(C)S2)cc1)C(=O)OCC (stereo unspecified)", "measurement.target": "OVCAR-3 ovarian", "TGI": "60.1 µM"}
{"molecule": "CCOC(=O)N1N=C(/C(C)=N/OC)C(C)S1=O (stereo unspecified)", "measurement.target": "OVCAR-3 ovarian", "TGI": "> 100 µM"}
{"molecule": "COC(=O)CCCCC(=O)c1c(C)[nH]c(/C=C2\\N=C(c3ccc[nH]3)C=C2OC)c1C", "measurement.target": "OVCAR-3 ovarian", "TGI": "2.24 µM"}
{"molecule": "Cc1cc(N(CCC#N)CCC#N)ccc1/C(N=Nc1cccc(Cl)c1)=N/NC(=O)c1cc(Cl)ccc1O", "measurement.target": "OVCAR-3 ovarian", "TGI": "16.5 µM"}
{"molecule": "N#CC(c1ccccn1)c1nc2ccccc2[nH]1 (stereo unspecified)", "measurement.target": "OVCAR-3 ovarian", "TGI": "> 100 µM"}
{"molecule": "COc1ccc2c(c1)c1c(n2CCN(C)C)-c2ccccc2CC1", "measurement.target": "OVCAR-3 ovarian", "TGI": "30.9 µM"}
{"molecule": "COC(=O)c1cc2c(cc1Cl)SC1=NN(C)C(N(C)C)N1S2(=O)=O (stereo unspecified)", "measurement.target": "OVCAR-3 ovarian", "TGI": "> 100 µM"}
{"molecule": "C[CH2][Sn]([CH2]C)([O]C(=O)c1ccccc1OC)[O][Sn]([CH2]C)([CH2]C)[O]C(=O)c1ccccc1OC", "measurement.target": "OVCAR-3 ovarian", "TGI": "> 100 µM"}
{"molecule": "CCOC(=O)C1(C(=O)OCC)[C@@H](c2ccccc2)C2=NO[C@@H]3CCC[C@H]1[C@H]23", "measurement.target": "OVCAR-3 ovarian", "TGI": "> 100 µM"}
{"molecule": "O=[N+]([O-])c1cccc2nc3ccccc3c(NCCCNc3c4ccccc4nc4cccc([N+](=O)[O-])c34)c12", "measurement.target": "OVCAR-3 ovarian", "TGI": "0.0906 µM"}
{"molecule": "O=C(CCCCCCN1CC(=O)N2[C@@H](c3ccc(Cl)c(Cl)c3)c3[nH]c4ccccc4c3C[C@H]2C1=O)NO", "measurement.target": "OVCAR-3 ovarian", "TGI": "6.57 µM"}
{"molecule": "N#CC(C#N)c1ccc(C(=O)N2CCC[C@H]2CO)cc1", "measurement.target": "OVCAR-3 ovarian", "TGI": "> 100 µM"}
{"molecule": "CC(N)Cc1ccc(Cl)c(Cl)c1 (stereo unspecified)", "measurement.target": "OVCAR-3 ovarian", "TGI": "> 100 µM"}
{"molecule": "Cc1ccc(NC(=O)CC2C(=O)Nc3ccccc3S2(=O)=O)c(C)c1 (stereo unspecified)", "measurement.target": "OVCAR-3 ovarian", "TGI": "30.1 µM"}
{"molecule": "O=C(/C=C/c1ccccc1)Oc1ccc(C(=O)/C=C/c2ccc(Cl)cc2)cc1", "measurement.target": "OVCAR-3 ovarian", "TGI": "> 100 µM"}
{"molecule": "CSc1nc2sc3c(c2c(=O)n1-c1ccc(C(C)C)cc1)CCC(=O)C3", "measurement.target": "OVCAR-3 ovarian", "TGI": "3.53 µM"}
{"molecule": "O=[N+]([O-])c1ccc(N2CCOCC2)c2c1no[n+]2[O-]", "measurement.target": "OVCAR-3 ovarian", "TGI": "3.15 µM"}
{"molecule": "COC(=O)c1c(C)n([O-])c2cc(Cl)c(Cl)cc2[n+]1=O", "measurement.target": "OVCAR-3 ovarian", "TGI": "52.4 µM"}
{"molecule": "CC1=NN(c2nc(N)nc(/C(C#N)=C\\c3csc([N+](=O)[O-])c3)n2)C(C)(C)C1", "measurement.target": "OVCAR-3 ovarian", "TGI": "78.9 µM"}
